Origin of measurements: ChEMBL document CHEMBL4513216

test: Toxicity liver stage against HepG2, at 10uM; format: cell-based; set-up: test concentration 10 uM, cell line HepG2-A16-CD81EGFP; settings: human, HepG2-A16-CD81EGFP cells; read-out: INHIBITION
measure.name: cytotoxicity at 10 µM (%)
One number for each entry, in %.

Cn1cc(C2(C)CN(Cc3ccc(N4CCCC4)nc3)CCO2)cn1 (stereo not drawn) ... 8.32
N#CCCN(c1ccc(F)cc1)S(=O)(=O)CC1CCCCO1 (stereo not drawn) ... 5.65
CC(C)(CNC(=O)Nc1cccc(-c2cccs2)c1)C(N)=O ... -9.99
CN(c1ccc(C(=O)NCCCN2CCOCC2)c(Cl)c1)S(C)(=O)=O ... -11.2
Cc1occc1C(=O)N1CCCC2(CCN(c3ccccc3)C2=O)C1 (stereo not drawn) ... -5.5

Hey, can you go through the list below and give me cytotoxicity at 10 µM for every item?
1. COc1cccc2c1CCCCN2C(=O)c1oc(C)nc1C
2. Cc1ccc(C(=O)N2CCC3(CCC(=O)N(CC(C)O)C3)CC2)c(O)c1 (stereo not drawn)

Key:
[3.3, 11]

Hey, can you go through the list below and give me cytotoxicity at 10 µM for every item?
1. O=C(O)C1(n2ccc(-c3ccco3)n2)CCN(Cc2ccsc2)CC1
2. Cc1nc2c(c(C)c1CC(=O)Nc1cccc(C#N)c1)c(=O)[nH]n2C
3. CCOCC1CN(C(=O)c2cscn2)Cc2cnn(CC3CC3)c21 (stereo not drawn)
4. COc1ccc(C(=O)Cn2cnnc2[S+](C)[O-])cc1Cl (stereo not drawn)

Key:
-129
3.99
-69.4
-8.17

Hey, can you go through the list below and give me cytotoxicity at 10 µM for every item?
1. CNS(=O)(=O)CC(=O)NC(C)Cc1ccccc1Br (stereo not drawn)
2. CC(C)(CNC(=O)c1ccco1)NC(=O)OC(C)(C)C
3. CC(O)CN1CCC(CN(C)Cc2ccc(C#N)cc2F)CC1 (stereo not drawn)
4. O=C(Cc1cccc(O)c1)N1CCC2(CC1)c1ccccc1CC2O (stereo not drawn)
5. CNC(=O)CS(=O)(=O)C1CCN(S(=O)(=O)C2CC2)CC1

Key:
1. 13.7
2. -2.43
3. -1.87
4. 2.28
5. -16.7

Hey, can you go through the list below and give me cytotoxicity at 10 µM for every item?
1. Cc1ccc(OC2CCN(C(=O)Cc3c(C)[nH]c(=O)[nH]c3=O)CC2)cc1
2. COc1cccc(CNC(=O)c2nc3c(s2)CCN(C(C)=O)CC3)c1
3. CCc1cnc(COc2ccc(OC3CCCCNC3=O)cc2)o1 (stereo not drawn)
4. CCn1cc(S(=O)(=O)N2CCC(C)Sc3ccccc32)cn1 (stereo not drawn)
5. COc1cc2c(cc1OC)C(=O)C(Sc1nnc(C)o1)C2 (stereo not drawn)
6. Cc1cc(N2CC[C@H](O)C2)n2nc(C)c(C)c2n1

Key:
6.45
-77.4
0.318
3.34
0.372
-3.62

Exercise: Can you look up the measured cytotoxicity at 10 µM of O=C1CC[C@H]2CN(c3ncc(F)cn3)CC[C@H]2N1CCc1c[nH]cn1 for me?
Key: 3.96
